What EC50 was measured for each of the following?
- TARGET: Human GPR40 (Homo sapiens (Human))
- Sequence (O14842 whole entry): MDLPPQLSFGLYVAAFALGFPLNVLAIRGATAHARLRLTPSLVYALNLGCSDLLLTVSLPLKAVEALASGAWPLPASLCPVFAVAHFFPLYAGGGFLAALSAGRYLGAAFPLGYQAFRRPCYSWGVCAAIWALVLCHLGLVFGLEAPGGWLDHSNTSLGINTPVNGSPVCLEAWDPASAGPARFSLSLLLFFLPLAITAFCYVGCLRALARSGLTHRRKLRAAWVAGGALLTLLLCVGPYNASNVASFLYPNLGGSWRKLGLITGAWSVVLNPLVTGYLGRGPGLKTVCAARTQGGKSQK
- MEASUREMENT DESCRIPTION: FLIPR assay, agonist-induced calcium mobilization in GPR40/CHO NFAT BLA cells
- Type: cell-based
Unit nM implied. Number only.

// lookup EC50 for O=C(O)C[C@H](c1cccc(OCC2CCCCN2Cc2cc(C(F)(F)F)ccc2C(F)(F)F)c1)C1CC1 (stereo partly shown) [Example 3] 126

// lookup EC50 for O=C(O)C[C@H](c1cccc(OCC2CN(Cc3cc(C(F)(F)F)ccc3C(F)(F)F)C2)c1)C1CC1 [Example 49] 8.3

// lookup EC50 for C[C@H](C(=O)O)[C@H](c1cccc(OCC2CN(c3cc(C(F)(F)F)ccc3C(F)(F)F)C2)c1)C1CC1 [Example 4] 77

// lookup EC50 for C[C@H](C(=O)O)[C@H](c1cccc(OCC2CC(NCc3cc(C(F)(F)F)ccc3C(F)(F)F)C2)c1)C1CC1 (stereo partly shown) [Example 14] 26

src = patent US10059667B2
